# testedOn: human mGluR7 (Homo sapiens, UniProt Q14831)
# Sequence (Q14831 35-915): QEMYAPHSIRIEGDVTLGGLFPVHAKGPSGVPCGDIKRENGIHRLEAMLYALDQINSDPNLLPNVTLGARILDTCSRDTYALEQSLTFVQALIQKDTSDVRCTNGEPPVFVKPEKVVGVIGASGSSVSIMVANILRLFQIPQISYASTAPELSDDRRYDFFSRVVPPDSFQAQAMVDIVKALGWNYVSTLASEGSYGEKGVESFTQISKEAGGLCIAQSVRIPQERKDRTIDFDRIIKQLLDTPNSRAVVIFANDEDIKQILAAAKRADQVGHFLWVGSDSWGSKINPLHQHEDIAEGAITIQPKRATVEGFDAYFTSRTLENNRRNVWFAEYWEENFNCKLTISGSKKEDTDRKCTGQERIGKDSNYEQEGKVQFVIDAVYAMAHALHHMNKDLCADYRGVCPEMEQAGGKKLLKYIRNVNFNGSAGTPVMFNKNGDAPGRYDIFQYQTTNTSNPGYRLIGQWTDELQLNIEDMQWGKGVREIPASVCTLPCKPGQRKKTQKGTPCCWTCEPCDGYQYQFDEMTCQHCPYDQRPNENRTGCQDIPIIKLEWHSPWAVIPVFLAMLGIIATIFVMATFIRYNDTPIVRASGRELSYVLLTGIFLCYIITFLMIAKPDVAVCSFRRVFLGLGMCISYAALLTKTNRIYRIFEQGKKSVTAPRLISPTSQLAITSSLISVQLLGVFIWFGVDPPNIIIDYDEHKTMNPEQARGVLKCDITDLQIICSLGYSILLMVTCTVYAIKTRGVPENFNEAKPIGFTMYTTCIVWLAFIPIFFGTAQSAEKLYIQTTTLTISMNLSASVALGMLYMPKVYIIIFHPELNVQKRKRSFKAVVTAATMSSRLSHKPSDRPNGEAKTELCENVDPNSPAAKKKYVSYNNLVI
# assayComment: mGluR7 assay: CRE-directed luciferase reporter gene assay, reduction of forskolin stimulated cAMP production
# conditionDescription: stable CHO cell line expressing the CRE-luc reporter and human mGluR7 genes; decrease of forskolin stimulated luminescence; 10-point concentration-response, duplicate wells
# Description: The ability of the test compounds to activate mGluR7 was determined by their ability to reduce forskolin stimulated cAMP production. Compounds were assessed in a CRE-directed luciferase reporter gene assay, using a stable CHO cell line expressing the CRE-luc reporter and human mGluR7 genes. In this cell line, production of cAMP stimulated the transcription of the luciferase gene and luciferase activity was then measured in a luminescent enzyme assay (Steady Glo assay; Promega E2550). […]
Where a name gives a salt, the structure may show the parent alone.
Simple rule here: EC50 less than 700 nM is criterion met, otherwise criterion not met.

> print(dat)
                                   compound                                  testedon        answerlabel
1  CC(C(=O)N[C@H]1Cc2ccccc2[C@@H]1NC(=O)OC(C)(C)C)c1ccc(OC(F)F)cc1 (stereo partly shown) [Example 151]  human mGluR7 (Homo sapiens, UniProt Q14831)      criterion met
2  C[C@H](C(=O)N[C@@H]1Cc2ccccc2[C@H]1N)c1ccccc1 [Example 12]  human mGluR7 (Homo sapiens, UniProt Q14831)      criterion met
3  COC1c2ccccc2CC1NC(=O)[C@@H](C)c1ccc(F)cc1F (single isomer, unassigned) [Example 26]  human mGluR7 (Homo sapiens, UniProt Q14831)      criterion met
4  N[C@H]1c2ccccc2C[C@@H]1NC(=O)C(c1ccc(F)cc1F)N1CC(F)C1 (single isomer, unassigned) [Example 107]  human mGluR7 (Homo sapiens, UniProt Q14831)  criterion not met
5  C[C@H](C(=O)NC1Cc2ccccc2C1O)c1ccccc1 (single isomer, unassigned) [Example 3]  human mGluR7 (Homo sapiens, UniProt Q14831)      criterion met
6  CO[C@H](C(=O)N[C@H]1Cc2ccccc2[C@@H]1N)c1ccccc1 [Example 19, hydrochloride]  human mGluR7 (Homo sapiens, UniProt Q14831)  criterion not met

###

# testedOn: human mGluR7 (Homo sapiens)
# assayComment: mGluR7 assay: CRE-directed luciferase reporter gene assay, reduction of forskolin stimulated cAMP production
# conditionDescription: stable CHO cell line expressing the CRE-luc reporter and human mGluR7 genes; decrease of forskolin stimulated luminescence; 10-point concentration-response, duplicate wells
pEC50: −log10 of the molar value.
Lab note: anything with pEC50 at or over 7 counts as T; the rest go in F.

> print(dat)
                                    compound                     testedon  answerlabel
 1  CN[C@@H]1c2ccccc2C[C@H]1NC(=O)[C@@H](C)c1ccc(F)cc1  human mGluR7 (Homo sapiens)            T
 2  C[C@H](C(=O)NC1Cc2ccccc2C1O)c1ccc(F)cc1 (single isomer, unassigned) [Example 63]  human mGluR7 (Homo sapiens)            F
 3  COC1c2ccccc2CC1NC(=O)[C@H](NC(=O)C1CC1)c1ccc(F)cc1 (single isomer, unassigned)  human mGluR7 (Homo sapiens)            F
 4  C[C@H](C(=O)NC1Cc2ccccc2C1O)c1ccc(F)cc1 (stereo in doubt) [Example 61]  human mGluR7 (Homo sapiens)            T
 5  CN[C@@H]1c2ccccc2C[C@H]1NC(=O)[C@H](C)c1ccc(F)cc1  human mGluR7 (Homo sapiens)            F
 6  COC1c2ccccc2CC1NC(=O)[C@@H](C)c1ccccc1 (mixture of isomers) [Example 7]  human mGluR7 (Homo sapiens)            T
 7  COc1cc(F)ccc1C(C)C(=O)N[C@H]1Cc2ccccc2[C@@H]1NC(=O)OC(C)(C)C (stereo partly drawn)  human mGluR7 (Homo sapiens)            F
 8  N[C@H]1c2ccccc2C[C@@H]1NC(=O)C(c1ccc(F)cc1)N1CC(F)C1 (single isomer, unassigned) [Example 116]  human mGluR7 (Homo sapiens)            F
 9  C[C@H](C(=O)NC1Cc2ccccc2C1N1CCCC1)c1ccc(F)cc1 (single isomer, unassigned) [Example 68]  human mGluR7 (Homo sapiens)            T
10  CCOC1c2ccccc2CC1NC(=O)C(C)c1ccc(F)cc1F (single isomer, unassigned) [Example 30]  human mGluR7 (Homo sapiens)            T
11  CC1c2ccccc2CC1NC(=O)[C@@H](NS(C)(=O)=O)c1ccc(F)cc1 (stereo in doubt)  human mGluR7 (Homo sapiens)            T
12  C[C@H](C(=O)N[C@H]1Cc2ccccc2[C@@H]1NS(C)(=O)=O)c1ccc(F)cc1F  human mGluR7 (Homo sapiens)            F
13  CCC(C(=O)N[C@H]1Cc2ccccc2[C@@H]1N)c1ccc(F)cc1F (single isomer, unassigned) [Example 16]  human mGluR7 (Homo sapiens)            F

Taken from patent US20190031599A1.
